Here, each record is paired with measured optical density data.
Target: human Fc (human)
Assay: ELISA, negative control

# binder, optical density / OD
rows = [
    ("367_H03 (antibody, V domains shown) VH: EVQLLESGGGLVQPGGSLRLSCAASGFTFSSYGMNWVRQAPGKGLEWVAGINYNSGYTSYADSVKGRFTISRDNSKNTLYLQMNSLRAEDTAVYYCARGANWHDTHLDYWGQGTLVTVSS VL: DIQMTQSPSSLSASVGDRVTITCRASQSIITYVNWYQQKPGKAPKLLIYAATSLASGVPSRFSGSGSGTDFTLTISSLQPEDFATYYCQQSYDLPLTFGGGTKVEIK", 0.377),
    ("372_A09 (antibody, V domains shown) VH: EVQLLESGGGLVQPGGSLRLSCAASGFTFDSYGMNWVRQAPGKGLEWVSGINYNGGYTSYADSVKGRFTISRDNSKNTLYLQMNSLRAEDTAVYYCARAANWHDTALDYWGQGTLVTVSS VL: DIQMTQSPSSLSASVGDRVTITCRASQSILSYLNWYQQKPGKAPKLVIYAATSRASGVPSRFSGSGSGTDFTLTISSLQPEDFATYYCQQSYNSPLTFGGGTKVEIK", 0.31),
    ("366_G02 (antibody, V domains shown) VH: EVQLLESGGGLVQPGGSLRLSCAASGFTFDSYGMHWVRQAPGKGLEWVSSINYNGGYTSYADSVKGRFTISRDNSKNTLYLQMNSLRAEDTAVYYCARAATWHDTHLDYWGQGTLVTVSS VL: DIQMTQSPSSLSASVGDRVTITCRASQSILTYLNWYQQKPGKAPKLLIYAATSRHSGVPSRFSGSGSGTDFTLTISSLQPEDFATYYCQQSDDNPLTFGGGTKVEIK", 0.357),
    ("368_B03 (antibody, V domains shown) VH: EVQLLESGGGLVQPGGSLRLSCAASGFTFDDYGMNWVRQAPGKGLEWVSGINYNGGYTSYADSVKGRFTISRDNSKNTLYLQMNSLRAEDTAVYYCARAANWHDTALDYWGQGTLVTVSS VL: DIQMTQSPSSLSASVGDRVTITCRASQSILTYLNWYQQKPGKAPKLVIYAATSLASGVPSRFSGSGSGTDFTLTISSLQPEDFATYYCQHSYENPLTFGGGTKVEIK", 0.297),
    ("375_D02 (antibody, V domains shown) VH: EVQLLESGGGLVQPGGSLRLSCAASGFTFSSYSMNWVRQAPGKGLEWVSNINYNGGYTSYADSVKGRFTISRDNSKNTLYLQMNSLRAEDTAVYYCARAATWHDTHLDYWGQGTLVTVSS VL: DIQMTQSPSSLSASVGDRVTITCRASQSILTYLNWYQQKPGKAPKLLIYAASSLQSGVPSRFSGSGSGTDFTLTISSLQPEDFATYYCQQSYELPLTFGGGTKVEIK", 0.191),
]
